- Assayed System: purified human ChoKα1 (Homo sapiens)
- Sequence (P35790 whole entry): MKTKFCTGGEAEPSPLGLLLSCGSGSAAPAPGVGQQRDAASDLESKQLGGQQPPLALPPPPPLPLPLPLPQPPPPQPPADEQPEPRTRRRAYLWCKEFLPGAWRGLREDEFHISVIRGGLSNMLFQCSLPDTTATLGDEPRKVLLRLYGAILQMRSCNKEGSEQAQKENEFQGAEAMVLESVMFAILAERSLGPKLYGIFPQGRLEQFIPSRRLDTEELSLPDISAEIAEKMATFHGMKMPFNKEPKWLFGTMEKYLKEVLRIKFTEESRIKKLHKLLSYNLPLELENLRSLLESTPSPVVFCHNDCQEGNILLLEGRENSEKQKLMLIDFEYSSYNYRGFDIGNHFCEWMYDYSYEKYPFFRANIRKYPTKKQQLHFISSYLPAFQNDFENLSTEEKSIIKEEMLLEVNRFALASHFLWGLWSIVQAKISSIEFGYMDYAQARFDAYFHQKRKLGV
- Procedure Summary: Determination of human choline kinase α1 activity ([methyl-14C]choline incorporation into phosphocholine)
- Assay type: biochemical
- Measurement Conditions: mean ± SEM, three independent experiments; read-out: IC50 ChoKα1 purified
pIC50: −log10 of the molar value.
Parameter Measured: pIC50

Molecule	Experimental Result
CN(c1ccccc1)c1cc[n+](Cc2ccc(OCCOc3ccc(C[n+]4ccc(N(C)c5ccccc5)c5ccc(Cl)cc54)cc3)cc2)c2cc(Cl)ccc12 [Compound 10h]	5.55
CN(c1ccc(Cl)cc1)c1cc[n+](Cc2ccc(OCCOc3ccc(C[n+]4ccc(N(C)c5ccc(Cl)cc5)c5ccccc54)cc3)cc2)c2ccccc12.[Br-].[Br-] [Compound 10g]	5.49
CN(c1ccc(Cl)cc1)c1cc[n+](Cc2ccc(OCCOc3ccc(C[n+]4ccc(N(C)c5ccc(Cl)cc5)cc4)cc3)cc2)cc1 [Compound 10c]	5.79
Clc1ccc2c(N3CCCC3)cc[n+](Cc3ccc(OCCOc4ccc(C[n+]5ccc(N6CCCC6)c6ccc(Cl)cc65)cc4)cc3)c2c1.[Br-].[Br-] [Compound 10l]	6.04
c1cc(OCCOc2ccc(C[n+]3ccc(N4CCCC4)cc3)cc2)ccc1C[n+]1ccc(N2CCCC2)cc1 [Compound 10b]	5.02
CN(c1ccccc1)c1cc[n+](Cc2ccc(OCCOc3ccc(C[n+]4ccc(N(C)c5ccccc5)c5ccccc54)cc3)cc2)c2ccccc12 [Compound 10f]	5.16
CN(c1ccc(Cl)cc1)c1cc[n+](Cc2ccc(OCCOc3ccc(C[n+]4ccc(N(C)c5ccc(Cl)cc5)c5ccc(Cl)cc54)cc3)cc2)c2cc(Cl)ccc12 [Compound 10i]	4.79
CN(C)c1cc[n+](Cc2ccc(OCCOc3ccc(C[n+]4ccc(N(C)C)cc4)cc3)cc2)cc1.[Br-].[Br-] [Compound 10a]	6.00
Clc1ccc2c(N3CCCCCC3)cc[n+](Cc3ccc(OCCOc4ccc(C[n+]5ccc(N6CCCCCC6)c6ccc(Cl)cc65)cc4)cc3)c2c1 [Compound 10k]	5.69
c1ccc2c(c1)c(N1CCCCCC1)cc[n+]2Cc1ccc(OCCOc2ccc(C[n+]3ccc(N4CCCCCC4)c4ccccc43)cc2)cc1 [Compound 10j]	5.78

###

- Test system: Human fibroblasts
- Procedure Summary: Antiproliferative assay in non-tumoral cells
- Type: cell-based
- Measurement Conditions: Fibroblast, mean ± SEM
Items are presented alongside their recorded GI50.

Compound	GI50, µM
c1ccc2c(c1)c(N1CCCCCC1)cc[n+]2Cc1ccc(OCCOc2ccc(C[n+]3ccc(N4CCCCCC4)c4ccccc43)cc2)cc1 [Compound 10j]	14.3
Clc1ccc2c(N3CCCCCC3)cc[n+](Cc3ccc(OCCOc4ccc(C[n+]5ccc(N6CCCCCC6)c6ccc(Cl)cc65)cc4)cc3)c2c1 [Compound 10k]	3.2
Clc1ccc2c(N3CCCC3)cc[n+](Cc3ccc(OCCOc4ccc(C[n+]5ccc(N6CCCC6)c6ccc(Cl)cc65)cc4)cc3)c2c1.[Br-].[Br-] [Compound 10l]	9.6
CN(c1ccc(Cl)cc1)c1cc[n+](Cc2ccc(OCCOc3ccc(C[n+]4ccc(N(C)c5ccc(Cl)cc5)c5ccccc54)cc3)cc2)c2ccccc12.[Br-].[Br-] [Compound 10g]	7.4
CN(c1ccccc1)c1cc[n+](Cc2ccc(OCCOc3ccc(C[n+]4ccc(N(C)c5ccccc5)c5ccc(Cl)cc54)cc3)cc2)c2cc(Cl)ccc12 [Compound 10h]	3.7
CN(C)c1cc[n+](Cc2ccc(OCCOc3ccc(C[n+]4ccc(N(C)C)cc4)cc3)cc2)cc1.[Br-].[Br-] [Compound 10a]	5.8
c1cc(OCCOc2ccc(C[n+]3ccc(N4CCCC4)cc3)cc2)ccc1C[n+]1ccc(N2CCCC2)cc1 [Compound 10b]	30.5
CN(c1ccccc1)c1cc[n+](Cc2ccc(OCCOc3ccc(C[n+]4ccc(N(C)c5ccccc5)c5ccccc54)cc3)cc2)c2ccccc12 [Compound 10f]	9.8

###

Items are presented alongside their recorded IC50.
- Assayed System: purified human ChoKα1 (Homo sapiens)
- Procedure Summary: Determination of human choline kinase α1 activity ([methyl-14C]choline incorporation into phosphocholine)
- Type: biochemical
Parameter Measured: IC50 (µM)

> print(dat)
                                   compound  experimental.result
1  [Br-].[Br-].c1cc(OCCOc2ccc(C[N+]34CCC(CC3)CC4)cc2)ccc1C[N+]12CCC(CC1)CC2 [Compound 10d]                 37.5
2  OC1C[N+]2(Cc3ccc(OCCOc4ccc(C[N+]56CCC(CC5)C(O)C6)cc4)cc3)CCC1CC2.[Br-].[Br-] (centres unmarked) [Compound 10e]                 9.51

###

- Test system: HeLa cells
- Procedure Summary: Antiproliferative MTT assay
- Type: cell-based
- Measurement Conditions: Homo sapiens, 72 h, mean ± SEM
Items are presented alongside their recorded GI50.
Parameter Measured: GI50 (nM)

Molecule	Prefix Operator	Experimental Result
CN(c1ccccc1)c1cc[n+](Cc2ccc(OCCOc3ccc(C[n+]4ccc(N(C)c5ccccc5)c5ccccc54)cc3)cc2)c2ccccc12 [Compound 10f]	=	150
CN(c1ccc(Cl)cc1)c1cc[n+](Cc2ccc(OCCOc3ccc(C[n+]4ccc(N(C)c5ccc(Cl)cc5)cc4)cc3)cc2)cc1 [Compound 10c]	=	5600
Clc1ccc2c(N3CCCCCC3)cc[n+](Cc3ccc(OCCOc4ccc(C[n+]5ccc(N6CCCCCC6)c6ccc(Cl)cc65)cc4)cc3)c2c1 [Compound 10k]	=	260
Clc1ccc2c(N3CCCC3)cc[n+](Cc3ccc(OCCOc4ccc(C[n+]5ccc(N6CCCC6)c6ccc(Cl)cc65)cc4)cc3)c2c1.[Br-].[Br-] [Compound 10l]	=	370
c1cc(OCCOc2ccc(C[n+]3ccc(N4CCCC4)cc3)cc2)ccc1C[n+]1ccc(N2CCCC2)cc1 [Compound 10b]	=	82
CN(c1ccccc1)c1cc[n+](Cc2ccc(OCCOc3ccc(C[n+]4ccc(N(C)c5ccccc5)c5ccc(Cl)cc54)cc3)cc2)c2cc(Cl)ccc12 [Compound 10h]	=	320
CN(c1ccc(Cl)cc1)c1cc[n+](Cc2ccc(OCCOc3ccc(C[n+]4ccc(N(C)c5ccc(Cl)cc5)c5ccc(Cl)cc54)cc3)cc2)c2cc(Cl)ccc12 [Compound 10i]	=	1500
OC1C[N+]2(Cc3ccc(OCCOc4ccc(C[N+]56CCC(CC5)C(O)C6)cc4)cc3)CCC1CC2.[Br-].[Br-] (centres unmarked) [Compound 10e]	>	100000
CN(c1ccc(Cl)cc1)c1cc[n+](Cc2ccc(OCCOc3ccc(C[n+]4ccc(N(C)c5ccc(Cl)cc5)c5ccccc54)cc3)cc2)c2ccccc12.[Br-].[Br-] [Compound 10g]	=	250
CN(C)c1cc[n+](Cc2ccc(OCCOc3ccc(C[n+]4ccc(N(C)C)cc4)cc3)cc2)cc1.[Br-].[Br-] [Compound 10a]	=	79
CN(C)c1cc[n+](Cc2ccc(CCCCc3ccc(C[n+]4ccc(N(C)C)cc4)cc3)cc2)cc1 [MN58b, reference compound]	=	1900
c1ccc2c(c1)c(N1CCCCCC1)cc[n+]2Cc1ccc(OCCOc2ccc(C[n+]3ccc(N4CCCCCC4)c4ccccc43)cc2)cc1 [Compound 10j]	=	170
CN(c1ccc(Cl)cc1)c1cc[n+](Cc2ccc(-c3ccc(C[n+]4ccc(N(C)c5ccc(Cl)cc5)c5ccccc54)cc3)cc2)c2ccccc12 [RSM932A, reference compound]	=	830
[Br-].[Br-].c1cc(OCCOc2ccc(C[N+]34CCC(CC3)CC4)cc2)ccc1C[N+]12CCC(CC1)CC2 [Compound 10d]	=	16900

###

- Tested on: PC-3 cells
- Procedure Summary: Antiproliferative MTT assay
- Format: cell-based
- Measurement Conditions: Homo sapiens, 72 h, mean ± SEM
- Description: Human T-cell leukemia (Jurkat), human B-cell leukemia (RS 4,11) and human promyelocytic leukemia (HL-60) cells were grown in RPMI-1640 medium (Gibco, Milan, Italy). Breast adenocarcinoma (MCF-7 and MDA-MB-231), human non-small cell lung carcinoma (A549), human cervix carcinoma (HeLa), human prostate adenocarcinoma (PC-3), and human colon adenocarcinoma (HT-29) cells were grown in DMEM medium (Gibco, Milan, Italy). […]
Parameter Measured: GI50 (nM)

Molecule	Experimental Result
c1ccc2c(c1)c(N1CCCCCC1)cc[n+]2Cc1ccc(OCCOc2ccc(C[n+]3ccc(N4CCCCCC4)c4ccccc43)cc2)cc1 [Compound 10j]	90
Clc1ccc2c(N3CCCC3)cc[n+](Cc3ccc(OCCOc4ccc(C[n+]5ccc(N6CCCC6)c6ccc(Cl)cc65)cc4)cc3)c2c1.[Br-].[Br-] [Compound 10l]	800
CN(c1ccc(Cl)cc1)c1cc[n+](Cc2ccc(OCCOc3ccc(C[n+]4ccc(N(C)c5ccc(Cl)cc5)c5ccccc54)cc3)cc2)c2ccccc12.[Br-].[Br-] [Compound 10g]	260
CN(C)c1cc[n+](Cc2ccc(OCCOc3ccc(C[n+]4ccc(N(C)C)cc4)cc3)cc2)cc1.[Br-].[Br-] [Compound 10a]	51
Clc1ccc2c(N3CCCCCC3)cc[n+](Cc3ccc(OCCOc4ccc(C[n+]5ccc(N6CCCCCC6)c6ccc(Cl)cc65)cc4)cc3)c2c1 [Compound 10k]	110
CN(c1ccccc1)c1cc[n+](Cc2ccc(OCCOc3ccc(C[n+]4ccc(N(C)c5ccccc5)c5ccc(Cl)cc54)cc3)cc2)c2cc(Cl)ccc12 [Compound 10h]	850
